# Assayed system: CDK2 (Homo sapiens)
# Construct: endogenous in cells; host or cells: OVCAR3 cells
# Assay info: Phospho-RB measurement in OVCAR3 cells (HTRF phospho-RB S807/811)
# Format: cell-based
# Protocol conditions: phosphorylation of RB protein at S807/811, HTRF, 24 h compound treatment, 0.3 to 10,000 nM, read-out: pRb (uM)
Experimental readout: log10(IC50) (log10 of the value in µM)
Parameter value (number): base-10 log of IC50 in µM.

Worked examples, 5 compounds total:
[
  {
    "Compound": "O=S1(=O)C[C@@H]2[C@H](C1)[C@H]2Nc1nccc(-c2sc(N3C4CCC3CC(F)(F)C4)nc2-c2cccc(NS(=O)(=O)c3c(F)cccc3F)c2F)n1",
    "Experimental readout": "log10(IC50)",
    "Experimental value": -1.30
  },
  {
    "Compound": "CN(C)C1CC2CCC(C1)N2c1nc(-c2cccc(NS(=O)(=O)c3c(F)cccc3F)c2F)c(-c2ccnc(NC3CC4(C3)CS(=O)(=O)C4)n2)s1 (stereo not drawn)",
    "Experimental readout": "log10(IC50)",
    "Experimental value": 0.19
  },
  {
    "Compound": "O=S1(=O)CC2(CC(Nc3nccc(-c4sc(N5C6CCC5CC(F)(F)C6)nc4-c4cccc(NS(=O)(=O)c5c(F)cccc5F)c4F)n3)C2)C1",
    "Experimental readout": "log10(IC50)",
    "Experimental value": -1.17
  },
  {
    "Compound": "O=S1(=O)CC2(CC(Nc3nccc(-c4sc(C5(C(F)F)CC5)nc4-c4cccc(NS(=O)(=O)c5c(F)cccc5C(F)(F)F)c4F)n3)C2)C1",
    "Experimental readout": "log10(IC50)",
    "Experimental value": -1.22
  },
  {
    "Compound": "CS(=O)(=O)[C@H]1CC[C@H](Nc2nccc(-c3sc(C45CC(C(F)(F)F)(C4)C5)nc3-c3cccc(NS(=O)(=O)c4c(F)cccc4C(F)(F)F)c3F)n2)CC1",
    "Experimental readout": "log10(IC50)",
    "Experimental value": -0.54
  }
]

Request the reported log10(IC50) associated with `CC(C)(C)OC(=O)N1CCC(C)(c2nc(-c3cccc(NS(=O)(=O)c4c(F)cccc4F)c3F)c(-c3ccnc(NC4CC5(C4)CS(=O)(=O)C5)n3)s2)CC1`
-0.14
